- Test system: NCI-H23 lung
- test.details: NCI tumour cell line growth inhibition, 48 h
quantity.measured: TGI (µM)

{"molecule": "COC1=C(C)C(=O)c2c(cc3c(c2O)C(C)(CCC=C(C)C)C(C)O3)C1=O (stereo not drawn)", "value.modifier": "=", "result": 68.5}
{"molecule": "N#Cc1nc2c(S(=O)(=O)c3ccc(Cl)cc3)c(N)n(CCCN3CCOCC3)c2nc1C#N", "value.modifier": "=", "result": 42.7}
{"molecule": "CCOP(=O)(OCC)OC1c2[nH]cc(C(=O)OCc3ccccc3)c2-c2cc(C(=O)OC)[nH]c2C1OC (stereo not drawn)", "value.modifier": ">", "result": 100}
{"molecule": "O=C1c2ccccc2N2Oc3ccccc3C12c1ccccc1 (stereo not drawn)", "value.modifier": ">", "result": 100}
{"molecule": "COC(=O)Nc1nc2ccc(Oc3cccc(NC(=O)Nc4cc(C(F)(F)F)ccc4F)c3)cc2[nH]1", "value.modifier": ">", "result": 25}
{"molecule": "CC(C)CCNCC(O)Cn1c2ccccc2c2ccccc21 (stereo not drawn)", "value.modifier": "=", "result": 31.9}
{"molecule": "CCOc1ccc(NC(=O)C(=O)C(C(=O)c2ccc3ccccc3c2)C2OC(=O)c3ccccc32)cc1 (stereo not drawn)", "value.modifier": "=", "result": 33}
{"molecule": "CCC[CH2][Sn]1([CH2]CCC)[O]C2C(CO)OC(n3ccc(N)nc3=O)C2[O]1 (stereo not drawn)", "value.modifier": "=", "result": 3.08}
{"molecule": "CC1(C)N=C(C2CCCN2C(=O)OCc2ccccc2)OC1=O (stereo not drawn)", "value.modifier": ">", "result": 100}
{"molecule": "COc1cc([N+](=O)[O-])c(OC)cc1-c1nc2sccn2c1/C=N/N=C(N)N", "value.modifier": "=", "result": 71.9}
{"molecule": "C[C@@H]1CC[C@@]2(OC1)O[C@H]1C[C@H]3[C@@H]4CC[C@H]5C[C@@H](OC6OC(CO)C(OC7OC(CO)C(O)C(OC8OCC(O)C(O)C8O)C7OC7OC(CO)C(O)C(O)C7O)C(O)C6O)[C@H](O)C[C@]5(C)[C@H]4CC[C@]3(C)[C@H]1[C@@H]2C (stereo partly drawn)", "value.modifier": "=", "result": 7.39}
{"molecule": "COc1ccc(C2=CC(c3ccc(OC)cc3Br)N3C=CSC3=N2)cc1 (stereo not drawn)", "value.modifier": "=", "result": 42.8}
{"molecule": "COC(=O)/C=C1/OC(c2ccc(OC)cc2)=C(Cl)C1=O", "value.modifier": "=", "result": 34.9}
{"molecule": "Nc1nc(-c2ccco2)cc(-c2ccc(CO)o2)n1", "value.modifier": ">", "result": 100}
{"molecule": "N#CNC(=NCCc1c[nH]c2ccccc12)Oc1ccccc1", "value.modifier": ">", "result": 100}
{"molecule": "COc1ccc(/C=C(\\C(=O)NCc2cccnc2)S(=O)(=O)c2ccccc2)cc1OC", "value.modifier": "=", "result": 10.6}
{"molecule": "C=C1CC[C@@H]2[C@](C)(COC(C)=O)[C@H](OC(C)=O)CC[C@@]2(C)[C@@H]1CC(Nc1ccc(S(=O)(=O)Nc2ccc(Cl)nn2)cc1)C1=CCOC1=O (stereo partly drawn)", "value.modifier": "=", "result": 5.35}
{"molecule": "Cc1ccc(N(C)S(=O)(=O)c2ccccc2[N+](=O)[O-])cc1", "value.modifier": ">", "result": 100}

###

- Tested on: K-562 leukemia
- test.details: NCI tumour cell line growth inhibition, 48 h; in the data active = GI50 below about 0.43 µM; inactive = the rest
Outcomes: active, inactive

{"molecule": "C#CCNCCN1C(=O)c2ccc3c4c(ccc(c24)C1=O)C(=O)N(CCNCC#C)C3=O", "discrete.label": "inactive"}
{"molecule": "CC1=C(CCC(C)NCc2ccc(OCCCN3CCCCC3)cc2)C(C)(C)CCC1 (configuration not stated)", "discrete.label": "active"}
{"molecule": "c1ccc2[nH]c(-c3cc(-c4ccc5c(c4)OCO5)n[nH]3)nc2c1", "discrete.label": "inactive"}
{"molecule": "C[CH2][Sn]([CH2]C)([O]C(=O)c1ccccc1F)[O][Sn]([CH2]C)([CH2]C)[O]C(=O)c1ccccc1F", "discrete.label": "inactive"}
{"molecule": "O1[As]2O[As]3O[As]1O[As](O2)O3", "discrete.label": "active"}
{"molecule": "Cc1nn(-c2ccc([N+](=O)[O-])cc2)c2ncnc(N/N=C/c3ccccc3O)c12", "discrete.label": "inactive"}
{"molecule": "CC(=O)O[C@H]1CCC2[C@@H]3CCC4c5nonc5CC[C@]4(C)C3CC[C@@]21C (some centres not stated)", "discrete.label": "inactive"}
{"molecule": "CN(C)c1ccc(C(=NO)c2ccc(N(C)C)cc2)cc1", "discrete.label": "active"}
{"molecule": "Cc1nn(C)c(COc2ccc(N3CCN(S(=O)(=O)N(C)C)CC3)cc2)c1-c1cccc2c(CCCOc3cccc4ccccc34)c(C(=O)O)n(CCN3CCOCC3)c12", "discrete.label": "inactive"}
{"molecule": "CCOC(=O)C1CCCCN1C(=O)c1ccc(Nc2cnc3cc(C(F)(F)F)ccc3n2)cc1 (configuration not stated)", "discrete.label": "inactive"}
{"molecule": "Cc1[nH]c2ccc(F)cc2c1-c1nc2c3cccnc3c3ncccc3c2[nH]1", "discrete.label": "active"}
{"molecule": "Cc1ccc(-c2nc3nc(-c4ccccc4)nc(N4CCNCC4)c3o2)cc1", "discrete.label": "active"}
{"molecule": "O=C(N/N=C/c1cc(Br)cc(Br)c1[O-])c1ccccc1O.O=C(N/N=C/c1cc(Br)cc(Br)c1[O-])c1ccccc1O.[Co+2]", "discrete.label": "inactive"}
{"molecule": "Nc1c(C(=O)c2cccc(C#CCO)c2)cnn1-c1ccc(F)cc1", "discrete.label": "inactive"}
{"molecule": "O=[N+]([O-])c1ccc(N=Nc2ccc(O)c3ccccc23)cc1", "discrete.label": "inactive"}
{"molecule": "O=C(Nc1ccc(Oc2cccc(F)c2)c(Cl)c1)c1cnccn1", "discrete.label": "active"}
{"molecule": "NS(=O)(=O)c1ccc(/C=C/c2ccc(O)cc2)cc1", "discrete.label": "inactive"}

###

- Tested on: XF 498 CNS
- test.details: NCI tumour cell line growth inhibition, 48 h

{"compound": "CC1=CC2c3cccc4[nH]cc(c34)CC2N(C)C1 (stereo not drawn)", "experimental.target": "XF 498 CNS", "TGI": "99.1 µM"}
{"compound": "COc1cc2c(cc1OC)[C@@H](Nc1ccc(F)cc1)C1COC(=O)[C@@H]1C2c1cc(OC)c(O)c(OC)c1 (stereo partly drawn)", "experimental.target": "XF 498 CNS", "TGI": "> 24.7 µM"}
{"compound": "CC(Oc1ccc(OCC2CCCCC2)cc1)C(=O)NCc1ccco1 (stereo not drawn)", "experimental.target": "XF 498 CNS", "TGI": "> 100 µM"}

###

- System: LXFL 529 NSCLC
- test.details: NCI tumour cell line growth inhibition, 48 h
Items are presented alongside their recorded TGI.

{"molecule": "CC(C)(c1ccccc1)c1ccc(Oc2ccc(C#N)c(C#N)c2)cc1", "TGI": "> 100 µM"}
{"molecule": "CCCN(CCC)C(=O)C(=O)c1c(N)[nH]n(-c2ccccc2)c1=O", "TGI": "> 100 µM"}
{"molecule": "O=C1C(c2cnc3ccccc3n2)=C(O)c2ccccc21", "TGI": "> 100 µM"}
{"molecule": "O=C1c2ccccc2N2Oc3ccccc3C12c1ccccc1 (configuration not stated)", "TGI": "> 100 µM"}
{"molecule": "CNC(=O)OCc1c2ccncc2c(C)c2c1[nH]c1ccc(OC)cc12", "TGI": "0.37 µM"}
{"molecule": "NC(=O)NC12CC3CC(CC(F)(C3)C1)C2", "TGI": "> 100 µM"}
{"molecule": "CCN(CC)c1oc(N(CC)CC)c(C(=O)Nc2ccccn2)c(=O)c1C(C)=O", "TGI": "> 100 µM"}
{"molecule": "COc1cccc(NC(=O)CC(=O)N2N=C(N3c4ccccc4Sc4ccccc43)CC2c2ccccc2)c1 (configuration not stated)", "TGI": "> 100 µM"}
{"molecule": "N#CNC(=NCCc1c[nH]c2ccccc12)Oc1ccccc1", "TGI": "> 100 µM"}
{"molecule": "O=c1cc(-c2cccnc2)[nH]c2cc3c(cc12)OCO3", "TGI": "26.8 µM"}
{"molecule": "O=C(O)c1nc(-c2ccc(Cl)c(Cl)c2)nc2ccc(Cl)cc12", "TGI": "> 100 µM"}
{"molecule": "CCOc1ccc(NC(=O)C(=O)C(C(=O)c2ccc3ccccc3c2)C2OC(=O)c3ccccc32)cc1 (configuration not stated)", "TGI": "37.4 µM"}

###

- Test system: NCI-H226 lung
- test.details: NCI tumour cell line growth inhibition, 48 h
Items are presented alongside their recorded GI50.
quantity.measured: GI50

{"compound": "CCN1C(=O)N(CC)C2C1NN=c1s/c(=C\\c3ccccn3)c(=O)n12 (stereo not given)", "quantity.measured": "GI50", "result": "3.07 µM"}
{"compound": "COc1ccc(C2=C(c3ccc(OC)c(OC)c3)C(=O)N3CCCC3C2)cc1 (stereo not given)", "quantity.measured": "GI50", "result": "43.9 µM"}
{"compound": "Cn1cccc1-c1cc(-c2ccc(Br)cc2)[nH]c(=O)c1C#N", "quantity.measured": "GI50", "result": "> 100 µM"}
{"compound": "Cc1ccc(-c2nc3nc(-c4ccccc4)nc(N4CCNCC4)c3o2)cc1", "quantity.measured": "GI50", "result": "1.79 µM"}
{"compound": "C#CCNCCN1C(=O)c2ccc3c4c(ccc(c24)C1=O)C(=O)N(CCNCC#C)C3=O", "quantity.measured": "GI50", "result": "2.96 µM"}
{"compound": "Cc1[nH]c(=O)nc(Nc2ccc(Cl)cc2)c1C(=O)N1CCN(CCO)CC1", "quantity.measured": "GI50", "result": "> 100 µM"}
{"compound": "COc1ccc(/C=C(\\C(=O)NCc2cccnc2)S(=O)(=O)c2ccccc2)cc1OC", "quantity.measured": "GI50", "result": "3.13 µM"}
{"compound": "Cc1cn2c(/C=C3/C(=O)Nc4ccc(O)cc43)c(C)nc2s1", "quantity.measured": "GI50", "result": "4.91 µM"}
{"compound": "COC(=O)c1cc2ccccc2c2c3c(ccc12)OCO3", "quantity.measured": "GI50", "result": "26.4 µM"}
{"compound": "O=C1c2ccc3c4c(ccc(c24)C(=O)N1CCCNCc1ccccc1Cl)C(=O)N(CCCNCc1ccccc1Cl)C3=O", "quantity.measured": "GI50", "result": "0.659 µM"}
{"compound": "CN(C)c1ccc(C(=NO)c2ccc(N(C)C)cc2)cc1", "quantity.measured": "GI50", "result": "9.43 µM"}
{"compound": "COC(=O)Nc1nc2ccc(Oc3cccc(NC(=O)Nc4cc(C(F)(F)F)ccc4F)c3)cc2[nH]1", "quantity.measured": "GI50", "result": "> 15.3 µM"}
{"compound": "O1[As]2O[As]3O[As]1O[As](O2)O3", "quantity.measured": "GI50", "result": "1.01 µM"}
{"compound": "CC(=O)[CH-]C(=O)c1ccccc1.CC(=O)[CH-]C(=O)c1ccccc1.CC(=O)[CH-]C(=O)c1ccccc1.[In+3]", "quantity.measured": "GI50", "result": "24.7 µM"}
{"compound": "Cc1cnc(CNC(=O)c2c(=O)c3ccc(N4CCCN(C)CC4)nc3n3c2sc2ccccc23)cn1", "quantity.measured": "GI50", "result": "7.44 µM"}
{"compound": "O=c1c(O)c(-c2ccc(O)c(O)c2)oc2cc(O)cc(O)c12", "quantity.measured": "GI50", "result": "16.3 µM"}
{"compound": "CN(C)CC1CCC2=C(C1=O)C(c1ccc(Cl)c(Cl)c1)C1=C(CCC(CN(C)C)C1=O)O2 (stereo not given)", "quantity.measured": "GI50", "result": "15.3 µM"}
{"compound": "Cn1cc(-c2csc(-c3cn(CCCN4CCCCC4)c4ccccc34)n2)c2cccnc21", "quantity.measured": "GI50", "result": "2.55 µM"}
{"compound": "COC(=N)c1c(N)[n+]([O-])c2ccc(F)cc2[n+]1[O-]", "quantity.measured": "GI50", "result": "> 100 µM"}
{"compound": "COc1ccc(N(/C=C/C(=O)C(F)(F)F)CC(=O)c2ccc(F)cc2)cc1", "quantity.measured": "GI50", "result": "12.1 µM"}
